Sourced from patent US20210070748A1

Attribute: IC50
target: BTK-WT (Homo sapiens); construct: purified from insect cells as a full-length construct containing an N-terminal 6X-His tag; His6 (N); made in house; host or cells: insect cells (baculovirus Sf21 in Method B); test: Btk in vitro inhibitory activity (one of Method A TR-FRET, Method B electrophoretic mobility shift, Method C radiometric filter binding); format: biochemical; details: Table 13, A compounds; read-out: IC50 BTK-WT
Sequence (Q06187 whole entry): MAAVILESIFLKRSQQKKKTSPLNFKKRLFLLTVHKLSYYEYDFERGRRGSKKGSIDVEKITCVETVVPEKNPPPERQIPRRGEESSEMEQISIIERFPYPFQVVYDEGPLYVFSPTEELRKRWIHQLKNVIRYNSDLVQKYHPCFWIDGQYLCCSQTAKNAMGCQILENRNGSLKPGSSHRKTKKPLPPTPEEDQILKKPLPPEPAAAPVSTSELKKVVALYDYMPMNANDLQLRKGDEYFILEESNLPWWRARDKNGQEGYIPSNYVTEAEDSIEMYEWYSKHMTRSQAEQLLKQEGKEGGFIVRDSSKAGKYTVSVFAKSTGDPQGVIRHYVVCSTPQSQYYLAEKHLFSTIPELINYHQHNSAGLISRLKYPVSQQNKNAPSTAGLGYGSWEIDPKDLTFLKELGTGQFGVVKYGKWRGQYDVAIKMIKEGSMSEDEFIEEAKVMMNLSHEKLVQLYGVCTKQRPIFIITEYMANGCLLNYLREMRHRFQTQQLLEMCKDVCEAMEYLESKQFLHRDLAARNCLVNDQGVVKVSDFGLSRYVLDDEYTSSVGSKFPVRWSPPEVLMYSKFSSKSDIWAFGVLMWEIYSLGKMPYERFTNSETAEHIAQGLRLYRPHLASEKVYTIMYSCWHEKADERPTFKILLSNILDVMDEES
value_kind: IC50

COCCN(C)Cc1cc(Nc2nc(N3CCC[C@@H](NC(=O)c4ccc(C5CC5)cc4)[C@H]3C)cnc2C(N)=O)sn1 ... ≤ 10 nM
Cc1cc(Nc2nc(N3CCC[C@@H](NC(=O)N4Cc5ccccc5C4=O)C3)cnc2C(N)=O)sn1 ... ≤ 10 nM
COCCn1cc(Nc2nc(N3CCC[C@@H](NC(=O)c4ccc(C5CC5)cc4)[C@H]3C)cnc2C(N)=O)cn1 ... ≤ 10 nM
C[C@@H]1[C@H](NC(=O)c2ccc(C3CC3)cc2)CCCN1c1cnc(C(N)=O)c(Nc2cnn(C)c2)n1 ... ≤ 10 nM
C[C@@H]1[C@H](NC(=O)c2ccc(C3CC3)cc2)CCCN1c1cnc(C(N)=O)c(Nc2cnn(C3CCN(C)CC3)c2)n1 ... ≤ 10 nM
CC(C)N1CCN(c2ccc(Nc3nc(N4CCC[C@@H](NC(=O)c5ccc(C6CC6)cc5F)[C@H]4C)cnc3C(N)=O)cc2)CC1 ... ≤ 10 nM
CN1CCC(n2cc(Nc3nc(N4CCC[C@@H](n5ccc6cc(C7CC7)ccc6c5=O)C4)cnc3C(N)=O)cn2)CC1 ... ≤ 10 nM
C[C@@H]1[C@H](NC(=O)c2ccc(C3CC3)cc2F)CCCN1c1cnc(C(N)=O)c(Nc2ccc(N3CCN(C)CC3)c(F)c2)n1 ... ≤ 10 nM
C[C@@H]1[C@H](NC(=O)c2ccc(C3CC3)cc2F)CCCN1c1cnc(C(N)=O)c(Nc2ccc(S(=O)(=O)N3CCCC3)cc2)n1 ... ≤ 10 nM
Cn1cc(Nc2nc(N3C[C@@H](NC(=O)c4ccc(C5CC5)cc4)CC(F)(F)C3)cnc2C(N)=O)cn1 ... 100 to 1000 nM
C[C@@H]1[C@H](NC(=O)N(C)C)CCCN1c1cnc(C(N)=O)c(Nc2ccc(N3CCN(C)CC3)cc2)n1 ... ≤ 10 nM
C=CC(=O)N[C@H]1CCCN(c2nnc(C(N)=O)c(Nc3ccc(C(C)C)cc3)n2)C1 ... 10 to 100 nM
C[C@@H]1[C@H](NC(=O)c2ccc(C3CC3)cc2F)CCCN1c1cnc(C(N)=O)c(Nc2cnn(C)c2)c1 ... 10 to 100 nM
C[C@@H]1[C@H](NC(=O)c2ccc(C3CC3)cc2)CCCN1c1cnc(C(N)=O)c(Nc2cc(CN3CCCCC3)ns2)n1 ... ≤ 10 nM
Cc1cc(Nc2nc(N3CCC[C@@H](n4ccc5cc(C6CC6)ccc5c4=O)C3)cnc2C(N)=O)sn1 ... ≤ 10 nM
C[C@@H]1[C@H](NC(=O)c2ccc(C3CC3)cc2F)CCCN1c1cnc(C(N)=O)c(Nc2ccc(S(=O)(=O)N3CCN(C)CC3)cc2)n1 ... ≤ 10 nM
Cn1cc(Nc2nc(N3CCC[C@@H](n4ccc5cc(C6CC6)ccc5c4=O)C3)cnc2C(N)=O)cn1 ... ≤ 10 nM
C=CC(=O)N[C@@H]1CCCN(c2nnc(C(N)=O)c(Nc3ccc(C(C)C)cc3)n2)C1 ... 10 to 100 nM
C[C@@H]1[C@H](NC(=O)c2ccc(C(C)(C)C)cc2)CCCN1c1cnc(C(N)=O)c(Nc2ccc(N3CCN(C)CC3)cc2)n1 ... ≤ 10 nM
C[C@@H]1[C@H](NC(=O)c2ccc(C3CC3)cc2)CCCN1c1cnc(C(N)=O)c(Nc2cnn(CCN(C)C)c2)n1 ... 10 to 100 nM
C[C@@H]1[C@H](NC(=O)c2ccc(C3CC3)cc2F)CCCN1c1cnc(C(N)=O)c(Nc2ccc(N3CCN(C4CCCC4)CC3)cc2)n1 ... ≤ 10 nM

###

molecular target: ITK (Homo sapiens); assay: Inhibition of a panel of kinases, in vitro HotSpot kinase assay: ITK; format: biochemical; conditions: E compounds, Table 17
Sequence (Q08881 whole entry): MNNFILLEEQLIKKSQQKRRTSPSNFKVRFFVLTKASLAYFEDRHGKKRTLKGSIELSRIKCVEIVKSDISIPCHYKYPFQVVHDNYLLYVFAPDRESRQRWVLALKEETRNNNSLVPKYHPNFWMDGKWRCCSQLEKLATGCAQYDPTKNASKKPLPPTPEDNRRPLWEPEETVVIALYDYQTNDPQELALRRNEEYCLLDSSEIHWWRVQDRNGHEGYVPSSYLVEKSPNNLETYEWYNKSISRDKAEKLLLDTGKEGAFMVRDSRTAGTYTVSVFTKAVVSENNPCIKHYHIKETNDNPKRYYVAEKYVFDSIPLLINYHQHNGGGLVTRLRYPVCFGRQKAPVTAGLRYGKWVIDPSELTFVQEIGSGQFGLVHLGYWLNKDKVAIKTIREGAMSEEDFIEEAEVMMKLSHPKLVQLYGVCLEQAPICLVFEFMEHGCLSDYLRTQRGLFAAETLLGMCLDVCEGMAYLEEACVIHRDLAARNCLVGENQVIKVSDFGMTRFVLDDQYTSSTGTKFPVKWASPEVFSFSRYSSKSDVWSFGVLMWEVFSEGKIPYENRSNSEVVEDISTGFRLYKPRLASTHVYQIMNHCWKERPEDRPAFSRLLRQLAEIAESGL
value_kind: IC50

C=CC(=O)N1CCC[C@@H](Nc2nnc(C(N)=O)c(Nc3ccc(Cl)cc3)n2)C1 ... 10 to 100 nM
C=CC(=O)N[C@@H]1CCCN(c2nnc(C(N)=O)c(Nc3ccc(C4(C)CCN(C5CC5)CC4)cc3)n2)[C@@H]1C ... 10 to 100 nM
C=CC(=O)N1CCC[C@@H](Nc2nnc(C(N)=O)c(Nc3ccc(C(C)C)cc3)n2)[C@@H]1C ... 10 to 100 nM
C=CC(=O)N1CCC[C@@H](Nc2nnc(C(N)=O)c(Nc3ccc4c(cnn4CC)c3)n2)C1 ... ≤ 10 nM
C=CC(=O)N1CCC[C@@H](Nc2cnc(C(N)=O)c(Nc3ccc(C4(C)CCN(C5CCCC5)CC4)cc3)n2)[C@H]1C ... ≤ 10 nM
C[C@@H]1[C@H](NC(=O)c2ccc(C3CC3)cc2)CCCN1c1cnc(C(N)=O)c(Nc2cnc(C3CCOCC3)nc2)n1 ... 100 to 1000 nM
C=CC(=O)N1CCC[C@@H](Nc2nnc(C(N)=O)c(Nc3ccc(Cn4cncn4)cc3)n2)C1 ... ≤ 10 nM

###

Target: JAK3 (Homo sapiens)
Sequence (P52333 1-1124): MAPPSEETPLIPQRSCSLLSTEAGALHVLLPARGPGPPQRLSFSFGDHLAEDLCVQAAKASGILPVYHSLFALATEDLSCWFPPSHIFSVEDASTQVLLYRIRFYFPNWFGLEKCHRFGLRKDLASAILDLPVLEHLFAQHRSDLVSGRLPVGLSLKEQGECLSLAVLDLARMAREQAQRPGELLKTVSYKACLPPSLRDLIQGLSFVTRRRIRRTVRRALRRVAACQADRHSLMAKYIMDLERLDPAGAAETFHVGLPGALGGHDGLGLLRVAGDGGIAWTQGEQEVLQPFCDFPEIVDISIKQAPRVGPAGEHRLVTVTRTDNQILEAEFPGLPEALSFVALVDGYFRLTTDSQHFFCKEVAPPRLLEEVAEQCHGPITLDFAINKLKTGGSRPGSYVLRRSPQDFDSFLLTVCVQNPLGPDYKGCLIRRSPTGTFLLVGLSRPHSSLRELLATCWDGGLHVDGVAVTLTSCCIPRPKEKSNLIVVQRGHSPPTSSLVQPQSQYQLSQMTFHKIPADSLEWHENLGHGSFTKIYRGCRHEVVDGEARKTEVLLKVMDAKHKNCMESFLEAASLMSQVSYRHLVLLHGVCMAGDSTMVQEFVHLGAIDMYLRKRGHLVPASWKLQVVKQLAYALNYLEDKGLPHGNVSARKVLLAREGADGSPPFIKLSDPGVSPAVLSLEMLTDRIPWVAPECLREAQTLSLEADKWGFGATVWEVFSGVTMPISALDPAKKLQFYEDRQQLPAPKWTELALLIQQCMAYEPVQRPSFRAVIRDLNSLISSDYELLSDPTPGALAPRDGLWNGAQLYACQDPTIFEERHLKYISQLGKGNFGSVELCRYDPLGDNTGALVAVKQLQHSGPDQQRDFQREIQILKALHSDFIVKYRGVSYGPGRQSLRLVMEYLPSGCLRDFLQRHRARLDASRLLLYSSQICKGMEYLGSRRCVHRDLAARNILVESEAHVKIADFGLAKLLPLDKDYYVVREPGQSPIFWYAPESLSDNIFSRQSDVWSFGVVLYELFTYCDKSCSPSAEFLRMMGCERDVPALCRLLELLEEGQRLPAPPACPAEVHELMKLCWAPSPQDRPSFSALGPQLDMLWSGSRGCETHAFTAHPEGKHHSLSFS
Assay: Inhibition of a panel of kinases, in vitro HotSpot kinase assay: JAK3
Type: biochemical
Settings: D-compounds panel data; 1 μM ATP; read-out: IC50 JAK3
Attribute: IC50
value_kind: IC50

C[C@@H]1[C@H](NC(=O)c2ccc(C3CC3)cc2)CCCN1c1cnc(C(N)=O)c(Nc2cnn(CCO)c2)n1 ... 1 to 10 µM
Cn1cc(Nc2nc(N3CCC[C@@H](n4ccc5cc(C6CC6)ccc5c4=O)C3)nnc2C(N)=O)cn1 ... 1 to 10 µM
C[C@@H]1[C@H](NC(=O)c2ccc3c(cnn3C)c2)CCCN1c1cnc(C(N)=O)c(Nc2cnn(C)c2)n1 ... 1 to 10 µM
CN(C)c1ccc2c(c1)CCN([C@@H]1CCCN(c3cnc(C(N)=O)c(Nc4cnn(C)c4)n3)C1)C2=O ... 1 to 10 µM
Cn1cc(Nc2nc(N3C4CCC(NC(=O)c5ccc(C6CC6)cc5)C3CC4)cnc2C(N)=O)cn1 (single isomer, unassigned) [Example D-200] ... > 10 µM
C[C@@H]1CC[C@@H](NC(=O)c2ccc(C3CC3)cc2)CN1c1cnc(C(N)=O)c(Nc2cnn(C)c2)n1 ... > 10 µM
C[C@@H]1[C@H](NC(=O)c2ccc(C3CC3)cc2)CCCN1c1cnc(C(N)=O)c(Nc2cnn(C3CCN(C(=O)C4CC4)CC3)c2)n1 ... 1 to 10 µM
C[C@@H]1[C@H](NC(=O)c2ccc3[nH]cnc3c2)CCCN1c1cnc(C(N)=O)c(Nc2cnn(C)c2)n1 ... 1 to 10 µM
C[C@@H]1[C@H](NC(=O)c2ccc(C3CC3)c(Cl)c2)CCCN1c1cnc(C(N)=O)c(Nc2ccc(N3CCN(C)CC3)cc2)n1 ... 1 to 10 µM
CN(C)C(=O)N[C@H]1CCCN(c2cnc(C(N)=O)c(Nc3ccc4ncccc4c3)n2)[C@H]1CO (racemic) ... > 10 µM
C[C@@H]1[C@H](NC(=O)c2ccc(C3CC3)cc2)CCCN1c1cnc(C(N)=O)c(Nc2ccc(N3CCN(C)CC3)c(C(F)(F)F)c2)n1 ... > 10 µM
Cn1cc(Nc2nc(N3C4CCC(NC(=O)c5ccc(C6CC6)cc5)C3CC4)cnc2C(N)=O)cn1 (single isomer, unassigned) [Example D-201] ... 1 to 10 µM
CCN(CC)c1ccc(C(=O)N[C@@H]2CCCN(c3cnc(C(N)=O)c(Nc4cnn(C)c4)n3)[C@@H]2C)cc1 ... 1 to 10 µM
